Taken from ChEMBL document CHEMBL1122559.

The following compounds are shown together with reported Log 1/Ki app values.
Molecular target: Dihydrofolate reductase (Homo sapiens)
Sequence (whole entry): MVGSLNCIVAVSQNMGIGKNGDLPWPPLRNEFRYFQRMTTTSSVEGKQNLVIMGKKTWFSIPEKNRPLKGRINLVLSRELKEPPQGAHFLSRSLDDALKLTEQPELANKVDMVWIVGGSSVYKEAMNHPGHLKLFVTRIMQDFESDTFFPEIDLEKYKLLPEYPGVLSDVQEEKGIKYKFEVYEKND

Reference set, count: 4
CCOC(=O)c1ccc(N2C(N)=NC(N)=NC2(C)C)cc1    3.46
CC1(C)N=C(N)N=C(N)N1c1ccc(OCc2ccccc2)cc1    6.93
COc1ccc(N2C(N)=NC(N)=NC2(C)C)cc1    5.31
CC1(C)N=C(N)N=C(N)N1c1ccc(OCc2ccc(CO)cc2)cc1    7.12

Input: Returns the measured Log 1/Ki app for the input compound. Input: CCCCCCCCCCCCOc1ccc(N2C(N)=NC(N)=NC2(C)C)cc1
Output: 5.85

Input: How about CC1(C)N=C(N)N=C(N)N1c1ccc(S(N)(=O)=O)cc1 ?
Output: 3.81

====

biological target: Dihydrofolate reductase (Homo sapiens) (UniProt P00374)
Label scheme for Log 1/Ki app: lower than 5 is F, 5 and above is T.

CC1(C)N=C(N)N=C(N)N1c1ccc(C#Cc2ccccc2)cc1    T
Cc1ccc(N2C(N)=NC(N)=NC2(C)C)cc1    T
CC(=O)Nc1ccc(N2C(N)=NC(N)=NC2(C)C)cc1    F
CC1(C)N=C(N)N=C(N)N1c1ccc(C#N)cc1    F
CC1(C)N=C(N)N=C(N)N1c1ccc(OCC(=O)N2CCOCC2)cc1    T
CCCOc1ccc(N2C(N)=NC(N)=NC2(C)C)cc1    T
CC1(C)N=C(N)N=C(N)N1c1ccc(SCc2ccccc2)cc1    T
CC(=O)c1ccc(N2C(N)=NC(N)=NC2(C)C)cc1    F

Input: Say whether CC1(C)N=C(N)N=C(N)N1c1ccc(S(C)(=O)=O)cc1 shows Log 1/Ki app of 5 or more.
Output: F

Input: How about CC1(C)N=C(N)N=C(N)N1c1ccc(F)cc1 ?
Output: T

Input: How about CCCCc1ccc(N2C(N)=NC(N)=NC2(C)C)cc1 ?
Output: T

Input: How about CC1(C)N=C(N)N=C(N)N1c1ccc(OCc2ccc(S(N)(=O)=O)cc2)cc1 ?
Output: T

====

# Dihydrofolate reductase (Homo sapiens): Log 1/Ki app values follow
Note: the reply should be a number with no unit written.

Input: Returns the measured Log 1/Ki app for the input compound. Input: CC1(C)N=C(N)N=C(N)N1c1ccc(N)cc1
Output: 4.65

Input: How about CCCCCCOc1ccc(N2C(N)=NC(N)=NC2(C)C)cc1 ?
Output: 5.53

Input: How about CC1(C)N=C(N)N=C(N)N1c1ccc(OCc2ccc(C(N)=O)cc2)cc1 ?
Output: 7.23

Input: How about CCCCCCCCCc1ccc(N2C(N)=NC(N)=NC2(C)C)cc1 ?
Output: 6.52

Input: How about CC1(C)N=C(N)N=C(N)N1c1ccc(CSc2ccccc2)cc1 ?
Output: 7.33

Input: How about CC(C)(C)c1ccc(N2C(N)=NC(N)=NC2(C)C)cc1 ?
Output: 5.66

Input: How about CC1(C)N=C(N)N=C(N)N1c1ccc(OCc2ccc(Cl)c(Cl)c2)cc1 ?
Output: 6.46

Input: How about Cc1ccccc1SCc1ccc(N2C(N)=NC(N)=NC2(C)C)cc1 ?
Output: 7.18

Input: How about CC1(C)N=C(N)N=C(N)N1c1ccc(C(F)(F)F)cc1 ?
Output: 5.58

Input: How about CC1(C)N=C(N)N=C(N)N1c1ccc(SCc2ccc(Cl)cc2)cc1 ?
Output: 6.97

Input: How about CC1(C)N=C(N)N=C(N)N1c1ccc(Br)cc1 ?
Output: 5.76

Input: How about CC1(C)N=C(N)N=C(N)N1c1ccc(I)cc1 ?
Output: 5.51
